Source listed as ChEMBL document CHEMBL3988442.

Assay target: Chromo domain-containing protein 1 (Saccharomyces cerevisiae (strain ATCC 204508 / S288c) (Baker's yeast))
Protocol text: ScCHD-1 Enzyme Inhibition Assay; also: in the data most compounds retested in dose-response had high values
Format: functional
Design: scale not given: direction of the effect not stated beside the values
Condition: 30 µM
Metric: Percent Effect (%)
Number in %, nothing else.

# count of solved cases: 3
Molecule	Quantitative readout
O=C(NCCc1ccc(Cl)s1)NCc1nnc2n1CCC2	-7.66
Cc1noc(C)c1C(=O)NCc1ccc(N2CCOC(C)C2)nc1 (stereo unspecified)	-13.6
CC(=O)N1CCC(Cc2cnc(-c3c(C)nn(C)c3C)cn2)C1 (stereo unspecified)	-1.12

*Q* Any idea what Percent Effect was measured for COc1ccc(C(C(=O)O)N2CCCN(C3CCCC3)CC2)cc1OC (stereo unspecified) ?
*A* -4.58

*Q* I am curious: what Percent Effect value has been reported for CCOC(=O)N1CCN(c2nc(NC)c3ccccc3n2)CC1 ?
*A* -1.69

----------
Assay target: Tyrosyl-tRNA synthetase, putative (Trypanosoma cruzi (strain CL Brener))
Protocol text: Trypanosoma cruzi tyrosyl tRNA synthetase (TcYRS) SOP
Assay type: functional
Set-up: scale not given: direction of the effect not stated beside the values
Condition: 30 µM
Decide using Percent Effect alone. Strictly below 10%: 1. Equal to or above 10%: -1.

Study these solved cases before continuing.
Molecule	Assay target	Qualitative label
CC(=O)Nc1cc(C(=O)N2CCOCC2c2ccc(C)o2)ccc1F (centres undefined)	Tyrosyl-tRNA synthetase, putative (Trypanosoma cruzi (strain CL Brener))	1
O=C(c1ccsc1)N1CCc2c(COCc3ccncc3)cncc2C1	Tyrosyl-tRNA synthetase, putative (Trypanosoma cruzi (strain CL Brener))	1
CCC1CN(C(=O)NCCOc2ccc3c(c2)OCO3)CCO1 (centres undefined)	Tyrosyl-tRNA synthetase, putative (Trypanosoma cruzi (strain CL Brener))	-1
Cc1cccn2c(=O)cc(OC(=O)c3ccccc3)nc12	Tyrosyl-tRNA synthetase, putative (Trypanosoma cruzi (strain CL Brener))	1
CCCS(=O)(=O)N1CCC2(CC1)CN(c1ccccn1)CCO2	Tyrosyl-tRNA synthetase, putative (Trypanosoma cruzi (strain CL Brener))	1
CC(C)c1nn(C)c(N2CCOCC2)c1CNCCS(C)(=O)=O	Tyrosyl-tRNA synthetase, putative (Trypanosoma cruzi (strain CL Brener))	1
Cn1cnc2c1C(COCC1CC1)CN(C(=O)Cc1ccsc1)C2 (centres undefined)	Tyrosyl-tRNA synthetase, putative (Trypanosoma cruzi (strain CL Brener))	1
Cc1nn(C)c2cnn(CC(=O)NCCc3ccccc3)c12	Tyrosyl-tRNA synthetase, putative (Trypanosoma cruzi (strain CL Brener))	-1

*Q* Given CN1CCOC(CNC(=O)CCCOc2ccccc2F)C1 (centres undefined) , is recorded Percent Effect strictly lower than 10%?
*A* -1

*Q* Bench note: check whether Cc1cc(C)n(CC2CN(CC(=O)Nc3nncs3)CCO2)n1 (centres undefined) shows Percent Effect below 10%
*A* -1

*Q* hey, is Percent Effect for Cc1ccc(CNC(=O)NCc2cccnc2N(C)C)s1 lower than 10% or not?
*A* -1

----------
Assay target: Arginase-2, mitochondrial (Homo sapiens) (UniProt P78540)
Sequence (P78540 whole entry): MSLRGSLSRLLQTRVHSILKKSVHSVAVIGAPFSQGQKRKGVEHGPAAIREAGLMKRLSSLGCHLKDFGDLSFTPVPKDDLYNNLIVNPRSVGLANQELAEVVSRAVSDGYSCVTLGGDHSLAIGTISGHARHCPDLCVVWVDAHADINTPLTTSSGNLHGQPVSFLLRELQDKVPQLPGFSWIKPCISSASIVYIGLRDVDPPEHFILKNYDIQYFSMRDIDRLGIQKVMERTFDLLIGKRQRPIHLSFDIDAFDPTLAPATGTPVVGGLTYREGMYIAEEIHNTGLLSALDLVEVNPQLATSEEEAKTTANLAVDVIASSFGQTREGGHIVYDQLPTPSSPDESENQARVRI
Protocol text: in vitro enzyme assay to detect the production of urea directly proportional to the activity of Arginase II; also: in the data most compounds retested in dose-response had high values
Format: functional
Design: scale not given: direction of the effect not stated beside the values
Condition: 33.3 µM
Entries annotated with measured Percent Effect
All answers are understood in %, so give the number only.

Compound	Metric	Quantitative readout
Cc1cc2n(n1)CC(CNC1CCN(c3ccc(F)cc3)CC1)CN2 (stereo not given)	Percent Effect	15.1

*Q* Any idea what its Percent Effect is? The compound is Cc1nn(C)c(C)c1C1CCCN1C(=O)CCc1cscn1 (stereo not given)
*A* 0.36

*Q* Request the reported Percent Effect associated with CCOCC1CN(C)Cc2cnn(CC3CCCC3)c21 (stereo not given)
*A* 2

*Q* Suppose we examine the compound CC(Cn1ccnc1)NC(=O)N1CCN(Cc2cccnc2)CC1 (stereo not given) ; what Percent Effect value has been reported?
*A* -3.83

*Q* Would you mind telling me what Percent Effect value was observed for CCC1CN(C(=O)NCCOc2ccc3c(c2)OCO3)CCO1 (stereo not given) ?
*A* 5.53
